Entry source: PubChem BioAssay (NCATS)

- System: CP237
- experimental.protocol: qHTS profiling for inhibitors of Plasmodium falciparum proliferation (AID 504749); further: nearly all actives have a fitted effect of over 60% in size
- experimental.setup: P. falciparum in erythrocytes, SYBR Green DNA, 72 h; series mostly up to 12.8 µM
Inconclusive results are not listed. Calls of active or inactive are those of the source. The call rests on the fitted dose curve; in most records, active means well fitted inhibition curve with a large enough effect; inconclusive means small, poorly fitted or top-dose-only effect; inactive means flat fitted curve, though single readings scatter.
Respond with a class label; see active, inactive

Reference set (3 entries):
>>> label("CN[C@H]1[C@@H](O)[C@@H](NC)[C@@H]2O[C@@]3(O)C(=O)C[C@@H](C)O[C@H]3O[C@H]2[C@H]1O")
"inactive"
>>> label("COc1cc(C2c3cc4c(cc3C(O[C@@H]3OC5COC(c6cccs6)OC5C(O)C3O)C3COC(=O)C23)OCO4)cc(OC)c1O (stereo partly drawn)")
"active"
>>> label("CC(C)C1CCC(C(=O)NC(Cc2ccccc2)C(=O)O)CC1 (stereo not drawn)")
"inactive"

## Task Hey, what did the test say about COc1c(O[C@H]2O[C@@H](CO)[C@@H](O)[C@@H](O)[C@@H]2O)cc2c(c1OC)-c1ccc(SC)c(=O)cc1[C@H](NC(C)=O)CC2 ?
## Result inactive

## Task Hey, what did the test say about CCOC(=O)O[C@]1(C(=O)COC(=O)CC)CC[C@@H]2[C@@H]3CCC4=CC(=O)C=C[C@@]4(C)[C@H]3[C@H](O)C[C@]21C ?
## Result inactive

## Task Hey, what did the test say about CC(C)(C)NC[C@@H](O)COc1ccccc1C1CCCC1 ?
## Result active

## Task Hey, what did the test say about COCC(=O)Nc1c(I)c(C(=O)NC[C@@H](O)CO)c(I)c(C(=O)N(C)C[C@@H](O)CO)c1I ?
## Result inactive

## Task Hey, what did the test say about CCC(C)C(=O)OC1CC(O)C=C2C=CC(C)C(CCC(O)CC(O)CC(=O)O)C21 (stereo not drawn) ?
## Result inactive

----------
- system.under.test: Cytochrome P450 2D6 (Homo sapiens)
- experimental.protocol: Cytochrome P450 family 2 subfamily D member 6 (CYP2D6) small molecule antagonists: luciferase biochemical (cell-free) qHTS assay (AID 1645840); further: nearly all actives have a fitted effect of over 55% in size
- experimental.setup: P450-Glo CYP2D6 enzyme, luciferin luminescence, 1 h; series mostly up to 57.4 µM
Inconclusive results are not listed. Calls of active or inactive are those of the source. Calls come from the whole dose curve; as a rule, active = well fitted inhibition curve with a large enough effect in the repeat runs; inconclusive = weak or mixed curves; inactive = flat fitted curve, though single readings scatter.
Respond with a class label; see true for active, false for inactive

>>> label("CCCCCCCCCCCCCCCC(=O)OC[C@H](O)[C@H]1OC(=O)C(=O)C1O (stereo not given in full)")
"false"
>>> label("CCOCCCNC(=O)C(=O)Nc1c2c(nn1-c1ccc(OC)cc1)CSC2")
"false"
>>> label("Cc1ccccc1-n1c(SCc2ccc(Cl)cc2)nc2[nH]ncc2c1=O")
"true"

## Task Hey, what did the test say about CC1(C#N)CCN(c2c(C(=O)N3CCN(S(C)(=O)=O)CC3)cnc3cc(F)c(F)cc23)CC1 ?
## Result false

## Task Hey, what did the test say about CC1=C(C(=O)Nc2ccc(CN)cc2)C(c2ccccc2Cl)N=C(Nc2nc3ccccc3o2)N1 (stereo not given) ?
## Result true

----------
- experimental.protocol: qHTS Assay for Lipid Storage Modulators (AID 1519)
- experimental.setup: Drosophila S3 cells, BODIPY lipid droplet/cell ratio, laser cytometry; measured here: cell count channel max response; cells loaded with oleic acid
- Protocol: NIH Molecular Libraries Probe Production Centers Network [MLPCN] NIH Chemical Genomics Center [NCGC] Assay Submitter (PI): Beller, Mathias; Max-Planck-Institut fur Biophysikalische Chemie […] We dispensed 4 uL of cells at 1.25 x 10^6 cells/mL into LoBase Aurora COC 1,536-well plates (black walled, clear bottom) with a bottle-valve solenoid-based dispenser (Aurora) to obtain 5,000 cells/well. […] The ratio of the total intensity in PMT channel 1 over total intensity of channel 3 was also calculated. […]
Results filed as inconclusive are left out.
The entries below come with measured max response values attached.
Supply the numeric figure in %, leaving out any unit text.

>>> readout_value("C=C1C(N)CC2CC1C2(C)C (stereo not drawn)")
14

## Task Please report max response for the following molecule: COc1c(OC)c2occc2c2oc(=O)ccc12
## Result 0.397

## Task Please report max response for the following molecule: COc1cc2cc3c4cc(OC)c(OC)cc4cc[n+]3c(C)c2cc1OC
## Result -9.25
